# procedure summary: qHTS profiling of the MIPE4 collection as inhibitors of Plasmodium falciparum (DD2) proliferation (AID 743345)
# protocol conditions: P. falciparum Dd2 in erythrocytes, SYBR Green DNA, 72 h; at 28.5 µM (top of the series) unless noted
# parasite growth remaining, % of DMSO control (lower = more inhibition) values compiled below
recorded metric: parasite growth remaining, % of DMSO control (lower = more inhibition)

>>> test_value("COc1cc(OC)cc(-c2ccc3ncc4ccc(=O)n(-c5ccc(N6CCNCC6)c(C(F)(F)F)c5)c4c3c2)c1")
"5.58%"
>>> test_value("COc1cc(C)c(C=CC(C)=CC=CC(C)=CC(=O)O)c(C)c1C")
"115%"
>>> test_value("COC(=O)[C@@H]1CC2=CC(=O)CC[C@]2(C)[C@@]23O[C@@H]2C[C@@]2(C)[C@H](CC[C@@]24CCC(=O)O4)[C@@H]13")
"87.1%"
>>> test_value("CC(=O)NCC(=O)N1[C@H]2CC[C@H]1c1cc(Nc3ncc(C(F)(F)F)c(NC4CCC4)n3)ccc12")
"15.3%"
>>> test_value("CN(C)c1ccc2cc(C(=O)N[C@@H](CCCN=C(N)CCl)C(=O)NCc3ccccc3)ccc2c1")
"8.25%"
>>> test_value("CC(C)C[C@H](NC(=O)CNC(=O)c1cc(Cl)ccc1Cl)B1OC(=O)CC(CC(=O)O)(C(=O)O)O1 (stereo partly drawn)")
"7.15%"
>>> test_value("COc1ccc(C[C@@H](C)[C@@H](C)Cc2ccc(OC)c(OC)c2)cc1OC")
"87.5%"
>>> test_value("N[C@H]1CN(c2c(F)cc3c(=O)c(C(=O)O)cn(C4C[C@@H]4F)c3c2Cl)CC12CC2 (stereo partly drawn)")
"24.5%"

====

# System: NIH3T3
# procedure summary: Cytotoxic Profiling of Annotated Libraries Using Quantitative High-Throughput Screening (AID 1296008); also: nearly all actives have a fitted effect of over 60% in size; also: potency is read from the fitted curve at half-maximal effect
# protocol conditions: Five cell lines viability, CellTiter-Glo ATP luminescence, 48-72 h
Results filed as inconclusive are left out. Activity calls are given as the source filed them. The call rests on the fitted dose curve; in most records, active means well fitted inhibition curve with a large enough effect; inconclusive means small, poorly fitted or top-dose-only effect; inactive means flat fitted curve, though single readings scatter.
recorded metric: Potency

>>> test_value("OC[C@H]1OC(O)C[C@@H](O)[C@H]1O (some centres not stated)")
"inactive"
>>> test_value("C[C@@H]1[C@H](C)CC[C@]2(C(=O)O)CC[C@]3(C)C(=CC[C@@H]4[C@@]5(C)C[C@@H](O)[C@H](O)[C@@](C)(CO)[C@H]5CC[C@]43C)[C@@H]12")
"inactive"
>>> test_value("CC(=O)NCC(=O)N1[C@H]2CC[C@H]1c1cc(Nc3ncc(C(F)(F)F)c(NC4CCC4)n3)ccc12")
"1320 nM (active)"
>>> test_value("CC[C@H]1OC(=O)[C@H](C)[C@@H](O[C@H]2C[C@@](C)(OC)[C@@H](O)[C@H](C)O2)[C@H](C)[C@@H](O[C@@H]2O[C@H](C)C[C@H](N(C)C)[C@@H]2O)[C@](C)(OC)C[C@@H](C)C(=O)[C@H](C)[C@@H](O)[C@]1(C)O")
"inactive"
>>> test_value("CC(=O)C1=C(O)C=C2Oc3c(C(C)=O)c(O)c(C)c(O)c3C2(C)C1=O (configuration not stated)")
"inactive"
>>> test_value("COc1cccc2c1C(=O)c1c(O)c3c(c(O)c1C2=O)C[C@@](O)(C(=O)CO)C[C@@H]3O[C@H]1C[C@H](N)[C@@H](O)[C@H](C)O1")
"235 nM (active)"
>>> test_value("O=C1NC(=O)C(=Cc2ccc3nccc(-c4ccncc4)c3c2)S1")
"209 nM (active)"
